targetOrSystem: T1, human IL-23 (human, UniProt P29460 23-328; Q9NPF7 20-189)
T1 construct: Recombinant (Ebioscience); HIS-tagged in flow cytometry, biotinylated in some assays; also called hIL-23; rhIL-23
T1 sequence 1: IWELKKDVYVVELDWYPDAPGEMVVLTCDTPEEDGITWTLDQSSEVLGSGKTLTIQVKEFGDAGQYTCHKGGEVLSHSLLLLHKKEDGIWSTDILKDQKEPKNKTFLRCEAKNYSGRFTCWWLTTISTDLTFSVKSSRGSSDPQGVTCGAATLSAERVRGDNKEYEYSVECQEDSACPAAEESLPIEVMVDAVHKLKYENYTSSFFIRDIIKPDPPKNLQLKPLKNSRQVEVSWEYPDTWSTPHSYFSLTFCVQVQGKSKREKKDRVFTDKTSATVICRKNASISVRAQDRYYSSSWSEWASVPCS
T1 sequence 2: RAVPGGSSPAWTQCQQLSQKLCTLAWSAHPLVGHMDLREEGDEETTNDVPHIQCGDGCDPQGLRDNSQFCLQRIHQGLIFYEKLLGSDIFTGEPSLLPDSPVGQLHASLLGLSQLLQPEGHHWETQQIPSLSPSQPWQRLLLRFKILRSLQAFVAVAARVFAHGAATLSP
assayName: SPR, IgG on Protein A
parameter: koff
Answer with the value and then the unit.

Query block: Record request: koff value, item Antibody 181 (antibody, human IgG1, kappa, V domains shown) VH: EVQLVQSGAEVKKPGATVKISCKASGYTFSDYYLHWVRQAPEKGLEWMGWIDPENGDTEHAPKFQGRVTITADTSTDTGYLELSSLRSEDTAVYYCAANKELRYFDVWGQGTLVTVSS VL: DIQMTQSPSSVSASVGDRVTITCRASQSISINLHWYQQKPGKAPKLLIYFASQSISGVPSRFSGSGSGTDFSLTINSLQTEDFATYYCQQSNSFPLTFGGGTKVEIKR
Result block: 0.000173 s⁻¹

Taken from patent US20110262445A1.
